Attribute: log10 IC50
Subject of test: human HDAC1 (Homo sapiens, UniProt Q13547)
Construct: purchased ENZO Life Sciences AG (Lausen, CH)
Sequence (Q13547 whole entry): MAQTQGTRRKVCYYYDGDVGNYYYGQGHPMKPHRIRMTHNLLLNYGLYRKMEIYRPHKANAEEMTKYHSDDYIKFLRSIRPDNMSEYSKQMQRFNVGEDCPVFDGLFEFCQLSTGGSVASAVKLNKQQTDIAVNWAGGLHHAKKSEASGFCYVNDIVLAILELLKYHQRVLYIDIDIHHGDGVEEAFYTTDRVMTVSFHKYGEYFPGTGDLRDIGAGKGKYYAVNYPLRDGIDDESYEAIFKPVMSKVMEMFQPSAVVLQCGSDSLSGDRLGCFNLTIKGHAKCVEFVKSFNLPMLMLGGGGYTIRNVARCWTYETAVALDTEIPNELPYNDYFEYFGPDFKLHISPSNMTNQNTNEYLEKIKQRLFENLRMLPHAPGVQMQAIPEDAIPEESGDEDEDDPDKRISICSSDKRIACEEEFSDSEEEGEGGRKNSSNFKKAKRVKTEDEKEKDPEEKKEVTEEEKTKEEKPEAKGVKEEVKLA
Run description: In vitro HDAC1 inhibition assay, fluorogenic p53 peptide Ac-RHKK(Acetyl)-AMC
Type: biochemical
Experimental setup: 10 nM HDAC1, 20 µM substrate, 90 min, 37 °C
Base-10 log of IC50, unit µM.

Compound | log10 IC50
Cn1cc(CCN2CCN(c3cnc(C(=O)Nc4cc(-c5cccs5)ccc4N)cn3)CC2)c2ccccc21 [21a] | -0.59
Nc1cc(F)ccc1NC(=O)c1cnc(N2CCNCC2)cn1 [23a] | 0.52
Nc1cc(F)c(F)cc1NC(=O)c1cnc(N2CCNCC2)cn1 [25b] | 0.63

Exam item: Requested read-out: log10 IC50. Entry: Nc1ccc(-c2ccc(F)cc2)cc1NC(=O)c1cnc(N2CCN(CCc3c[nH]c4ccccc34)CC2)cn1 [21b]
Marked response: -0.15

Exam item: # lookup: log10 IC50 of Nc1ccc(-c2ccccc2F)cc1NC(=O)c1cnc(N2CCN(CCc3c[nH]c4ccccc34)CC2)cn1 [21c]
Marked response: -0.12

Exam item: Given the compound Nc1ccccc1NC(=O)c1cnc(N2CCN(CCc3ccccc3)CC2)cn1 [19a] , what is its reported log10 IC50?
Marked response: -0.29

Exam item: Which log10 IC50 reading was recorded for the compound Nc1ccccc1NC(=O)c1cnc(N2CCN(Cc3c[nH]c4ccccc34)CC2)cn1 [19f] ?
Marked response: -0.89

Exam item: Dear colleague, I am looking for the recorded log10 IC50 of the following compound: CN1CCN(c2cnc(C(=O)Nc3cc(-c4ccccc4F)ccc3N)cn2)CC1 [29d]
Marked response: -0.74

Exam item: # log10 IC50 lookup, item Nc1cc(Cl)ccc1NC(=O)c1cnc(N2CCN(CCc3c[nH]c4ccccc34)CC2)cn1 [19i]
Marked response: 0.48

Data provenance is paper PMC8745332.
